Parameter pKd: see the listing below.
target: TGFβ1 (R&D Systems); assay: SPR (Biacore T200), TGFβ amine-coupled to chip, 1:1 fit
Sequence (P01137 279-390): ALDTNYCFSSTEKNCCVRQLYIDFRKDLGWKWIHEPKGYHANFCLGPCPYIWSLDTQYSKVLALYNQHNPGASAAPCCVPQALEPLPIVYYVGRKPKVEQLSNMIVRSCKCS
Quick note: pKd values are minus log10 of concentrations in mol/L.

Example binders with recorded pKd:
Caninized anti-TGFβ1,2,3 antibody VH3.1 - VL2 (ZTS-122) (antibody, V domains shown) VH: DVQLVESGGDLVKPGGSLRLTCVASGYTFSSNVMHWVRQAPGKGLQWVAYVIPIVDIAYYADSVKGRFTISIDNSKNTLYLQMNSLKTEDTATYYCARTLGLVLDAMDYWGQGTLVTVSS VL: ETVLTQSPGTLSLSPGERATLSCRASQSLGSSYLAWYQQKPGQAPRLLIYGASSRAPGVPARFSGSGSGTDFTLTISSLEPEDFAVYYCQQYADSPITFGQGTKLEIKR: 8.25
Felinized anti-TGFβ1,2,3 antibody VH2.2 - VL7 (antibody, V domains shown) VH: QVLLVQSGADVRKPGASVKIFCKASGYTFSSNVMHWVRQTPAQGFEWMGSVIPIVDIATYARRFQGRLVLTADTSTNTAYMELRSLKSADTAVYYCARTLGLVLDAMDYWGQGSLVTVSS VL: DIVLTQPPSLSVNLGQTARITCRASQSLGSSYLAWYQQKPGQAPKLVTYGASSRAPGIPDRFSGTNSGITATLTISGARAEDEADYYCQQYADSPITFGQGTKLEIKR: 8.31
human: feline GC1008 chimera felchimGC1008 (antibody, V domains shown) VH: QVQLVQSGAEVKKPGSSVKVSCTASGYTPSSNVISNVRQAPGQGLENNGGVIPIVDIANYAQRPKGRVTITADESTSTTYHELSSLRSEDTAVYYCASTLGLVLDAMDYHGQGTLVTVSS VL: ETVLTQSPGTLSLSPGERATLSCRASQSLGSSYLAWYQQKPGQAPRLLIYGASSRAPGIPDRFSGSGSGTDFTLTISRLEPEDFAVYYCQQYADSPITFGQGTRLEIKR: 8.59
Felinized anti-TGFβ1,2,3 antibody VH2.2 - VL3 (antibody, V domains shown) VH: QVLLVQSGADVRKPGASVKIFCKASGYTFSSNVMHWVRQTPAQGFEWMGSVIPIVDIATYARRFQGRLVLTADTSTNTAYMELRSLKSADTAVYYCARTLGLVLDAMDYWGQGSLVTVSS VL: EIQMTQSPSSLSASPGDRVTITCRASQSLGSSYLAWYQQKPGKVPKLLIYGASSRAPGVPSRFSGSGSGTDFTLTISSLEPEDAATYYCQQYADSPITFGQGTKLEIKR: 8.48
Felinized anti-TGFβ1,2,3 antibody VH3.2 - VL3 (antibody, V domains shown) VH: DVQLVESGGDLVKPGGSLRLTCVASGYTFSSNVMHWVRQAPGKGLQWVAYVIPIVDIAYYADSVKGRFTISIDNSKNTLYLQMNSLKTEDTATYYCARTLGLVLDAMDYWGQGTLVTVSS VL: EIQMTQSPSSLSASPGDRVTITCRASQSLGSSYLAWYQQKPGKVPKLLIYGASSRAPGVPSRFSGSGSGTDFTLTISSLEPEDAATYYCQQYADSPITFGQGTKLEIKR: 9.18
Felinized anti-TGFβ1,2,3 antibody VH2.8 - VL6 (antibody, V domains shown) VH: QVQLVQSGAEVKKPGSSVKVSCKASGYTFSSNVISWVRQTPAQGFEWMGGVIPIVDIANYAQRFKGRLVLTADTSTNTAYMELRSLKSADTAVYYCASTLGLVLDAMDYWGQGTLVTVSS VL: QSVLTQPPSVSGSLGQRVTISCRASQSLGSSYLAWYQQVPGRAPRLLIYGASSRAPGIPDRFSGSKSGTSGSLTITGLEADDEADYYCQQYADSPITFGGGTHLTVLG: 8.53

GET /values?readout=pKd&item= Caninized anti-TGFβ1,2,3 antibody VH4.5 - VL2 (ZTS-207) (antibody, V domains shown) VH: EVQLVESGGDLVKPAGSLRLSCVASGYTFSSNVMSWVRQAPGKGLQWVGYVIPIVDIANYADAVKGRFTISRDNAKNTLYLQMNSLRVEDTAVYYCTRTLGLVLDAMDYWGQGTLVTVSS VL: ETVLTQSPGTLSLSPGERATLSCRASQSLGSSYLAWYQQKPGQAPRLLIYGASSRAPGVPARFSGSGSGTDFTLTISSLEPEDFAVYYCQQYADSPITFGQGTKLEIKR
8.64

Queued: Caninized anti-TGFβ1,2,3 antibody VH3.1 - VL3 (antibody, V domains shown) VH: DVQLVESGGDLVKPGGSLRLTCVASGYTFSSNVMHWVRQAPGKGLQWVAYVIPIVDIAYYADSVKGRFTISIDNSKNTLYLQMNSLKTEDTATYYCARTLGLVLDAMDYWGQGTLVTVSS VL: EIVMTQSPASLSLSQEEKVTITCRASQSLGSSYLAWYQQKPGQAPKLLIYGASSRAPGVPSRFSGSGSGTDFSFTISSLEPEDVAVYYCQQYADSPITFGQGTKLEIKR
8.12

Now consider Felinized anti-TGFβ1,2,3 antibody VH2.1 - VL3 (antibody, V domains shown) VH: QVLLVQSGADVRKPGASVKIFCKASGYTFTSNVISWVRQTPAQGFEWMGGVIPIVDIANYAQRFKGRLVLTADTSTNTAYMELRSLKSADTAVYYCASTLGLVLDAMDYWGQGSLVTVSS VL: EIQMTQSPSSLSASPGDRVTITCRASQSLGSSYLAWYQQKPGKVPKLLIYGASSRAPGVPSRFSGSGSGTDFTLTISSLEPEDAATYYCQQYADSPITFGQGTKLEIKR and answer again.
8.54

Cool, now Felinized anti-TGFβ1,2,3 antibody VH3.2 - VL1 (antibody, V domains shown) VH: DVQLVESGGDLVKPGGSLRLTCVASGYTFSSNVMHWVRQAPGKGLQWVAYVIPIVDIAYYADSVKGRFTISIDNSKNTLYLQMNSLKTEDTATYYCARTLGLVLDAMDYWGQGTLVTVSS VL: ETVLTQSPGTLSLSPGERATLSCRASQSLGSSYLAWYQQKPGQAPRLLIYGASSRAPGIPDRFSGSGSGTDFTLTISRLEPEDFAVYYCQQYADSPITFGQGTKLEIKR
9.48
